// fold change of Cadaverine concentration lookup, one value per entry
Test system: Escherichia coli IAI1
Experiment: fold change of Cadaverine concentration vs plate DMSO controls (fold change (ratio)); higher = more amine produced, active = hit call of the paper (significant change in both replicates, either direction)
Conditions: incubation time: 27 h, anaerobic, 37 °C
Structures can show the parent of a compound that is named as a salt.

# fold change of Cadaverine concentration (compound: CN1CCN(c2c(F)cc3c(=O)c(C(=O)O)cn4c3c2SCC4)CC1 [Rufloxacin] (20 µM) ) is 0.26 (active)

The compound listed as COc1cc(C)nc(-n2nc(C)cc2OC)n1 [Epirizole] (20 µM) shows fold change of Cadaverine concentration equal to 1.01 (inactive)

fold change of Cadaverine concentration reported for this compound OC[C@H](O)C(O)[C@@H](O)CO [L-Arabinitol] (50 µM) : 0.981 (inactive)

Note to self: fold change of Cadaverine concentration recorded for NCCCC(O)(P(=O)(O)O)P(=O)(O)O [Alendronate sodium] (20 µM) was 1.01 (inactive)

Record CCCNC(=O)NS(=O)(=O)c1ccc(Cl)cc1 [Chlorpropamide] (20 µM) , field fold change of Cadaverine concentration: 0.993 (inactive)

Briefly, fold change of Cadaverine concentration measured for OCC(CO)N[C@H]1C[C@](O)(CO)[C@@H](O)[C@H](O)[C@H]1O [Voglibose] (20 µM) : 0.917 (inactive)

Recorded result, CC[C@H](C)[C@H](N)C1=N[C@H](C(=O)N[C@@H](CC(C)C)C(=O)N[C@H](CCC(=O)O)C(=O)N[C@H](C(=O)N[C@H]2CCCCNC(=O)[C@H](CC(N)=O)NC(=O)[C@@H](CC(=O)O)NC(=O)[C@H](Cc3cnc[nH]3)NC(=O)[C@@H](Cc3ccccc3)NC(=O)[C@H]([C@@H](C)CC)NC(=O)[C@@H](CCCN)NC2=O)[C@@H](C)CC)CS1 [Bacitracin] (20 µM) , fold change of Cadaverine concentration: 1.01 (inactive)

Record C=C1CC[C@H](O)C/C1=C/C=C1\CCC[C@]2(C)[C@@H]([C@H](C)CCCC(C)C)CC[C@@H]12 [Cholecalciferol] (20 µM) , field fold change of Cadaverine concentration: 0.984 (inactive)

get_value(item= CO/N=C(\C(=O)N[C@@H]1C(=O)N2C(C(=O)O)=C(COC(C)=O)CS[C@H]12)c1csc(N)n1 [Cefotaxime sodium salt] (20 µM) , readout=fold change of Cadaverine concentration) returns 0.574 (active)

Reported fold change of Cadaverine concentration ( CC[C@H]1OC(=O)[C@H](C)[C@@H](O[C@H]2C[C@@](C)(OC)[C@@H](O)[C@H](C)O2)[C@H](C)[C@@H](O[C@@H]2O[C@H](C)C[C@H](N(C)C)[C@H]2O)[C@](C)(OC)C[C@@H](C)C(=O)[C@H](C)[C@@H](O)[C@]1(C)O [Clarithromycin] (20 µM) ) = 0.944 (inactive)

Entry Cc1cc(/C=C/c2ccc3cc(N(C)C)ccc3[n+]2C)c(C)n1-c1ccccc1 [Pyrvinium pamoate] (20 µM) , fold change of Cadaverine concentration reported as 0.966 (inactive)

Per the records, this compound ( CNCc1cc(-c2ccccc2F)n(S(=O)(=O)c2cccnc2)c1 [Vonoprazan] (20 µM) ) has fold change of Cadaverine concentration equal to 0.483 (inactive)

Entry CC(C)NCC(O)c1ccc2ccccc2c1 (configuration not stated) [Pronethalol hydrochloride] (20 µM) , fold change of Cadaverine concentration reported as 0.994 (inactive)

The recorded fold change of Cadaverine concentration for entry N[C@@H](Cc1cc(I)c(Oc2ccc(O)c(I)c2)c(I)c1)C(=O)O [Liothyronine] (20 µM) equals 1.02 (inactive)

Summary for this compound, Cc1cn([C@H]2C[C@H](N=[N+]=[N-])[C@@H](CO)O2)c(=O)[nH]c1=O [Zidovudine] (20 µM) : fold change of Cadaverine concentration is 1.79 (inactive)

Item: O=C(O)c1cc(=O)c2c(OCC(O)COc3cccc4oc(C(=O)O)cc(=O)c34)cccc2o1 [Cromolyn disodium salt] (20 µM) | fold change of Cadaverine concentration: 0.99 (inactive)

Item: Cc1cnc(NC(=O)C2=C(O)c3ccccc3S(=O)(=O)N2C)s1 [Meloxicam] (20 µM) | fold change of Cadaverine concentration: 0.959 (inactive)

Entry COc1ccc2c3c1O[C@H]1C[C@@H](O)C=C[C@@]31CCN(C)C2 [Galanthamine hydrobromide] (20 µM) ; fold change of Cadaverine concentration = 0.979 (inactive)

Record CN1CCC(=C2c3ccccc3CC(=O)c3sccc32)CC1 [Ketotifen fumarate] (20 µM) . Reported fold change of Cadaverine concentration: 1.01 (inactive)

GET /value?item= O=C(CO)[C@@H](O)[C@H](O)[C@@H](CO)O[C@H]1O[C@H](CO)[C@@H](O)[C@H](O)[C@H]1O [Leucrose] (50 µM) &field=fold change of Cadaverine concentration returns 1.02 (inactive)

According to the records, this compound Nc1ccc(S(N)(=O)=O)cc1 [Sulfanilamide] (20 µM) displays fold change of Cadaverine concentration of 0.919 (inactive)

Summary for this compound, O=C(O)COCCN1CCN(C(c2ccccc2)c2ccc(Cl)cc2)CC1 (configuration not stated) [Cetirizine dihydrochloride] (20 µM) : fold change of Cadaverine concentration is 0.957 (inactive)

###

Catalogue of compounds with associated fold change of Cadaverine concentration
Tested on: Escherichia coli IAI1
Assay: fold change of Cadaverine concentration vs plate DMSO controls (fold change (ratio)); higher = more amine produced, active = hit call of the paper (significant change in both replicates, either direction)
Conditions: incubation time: 27 h, anaerobic, 37 °C
Where a name gives a salt, the structure may show the parent alone.
Note: the reply should be a number with no unit written.

O=C1[C@H](CC[C@H](O)c2ccc(F)cc2)[C@@H](c2ccc(O)cc2)N1c1ccc(F)cc1 [Ezetimibe] (20 µM) = 0.987
Cc1cc2nc3c(=O)[nH]c(=O)nc-3n(C[C@H](O)[C@H](O)[C@H](O)CO)c2cc1C [Riboflavine] (20 µM) = 1.01
CCCCNC(=O)NS(=O)(=O)c1ccc(C)cc1 [Tolbutamide] (20 µM) = 1

C(=C\c1ccccc1)/CN1CCN(C(c2ccccc2)c2ccccc2)CC1 [Cinnarizine] (20 µM) yielded fold change of Cadaverine concentration of 0.991

fold change of Cadaverine concentration in this record for Nc1cc(-c2ccncc2)c[nH]c1=O [Amrinone] (20 µM) : 0.982

For reference, reported fold change of Cadaverine concentration for COc1cc(N)c(Cl)cc1C(=O)NC1CCN(Cc2ccccc2)CC1 [Clebopride maleate] (20 µM) stands at 0.984

The recorded fold change of Cadaverine concentration for C[C@H](CS)C(=O)N1CCC[C@H]1C(=O)O [Captopril] (20 µM) is 1.01

Per the record, C[C@@H]1CCC[C@H](C)N1NC(=O)c1ccc(Cl)c(S(N)(=O)=O)c1 [Clopamide] (20 µM) has fold change of Cadaverine concentration of 1

fold change of Cadaverine concentration in this record for CCCNC(C)C(=O)Nc1ccccc1C (centres undefined) [Prilocaine hydrochloride] (20 µM) : 0.993

###

Test system: Ruminococcus gnavus DSM 108212
Assay: fold change of Tryptamine concentration vs plate DMSO controls (fold change (ratio)); higher = more amine produced, active = hit call of the paper (significant change in both replicates, either direction)
Conditions: incubation time: 27 h, anaerobic, 37 °C
fold change of Tryptamine concentration for assorted compounds
Lab note: write the figure by itself, no unit.

COc1cc(Nc2c(C#N)cnc3cc(OCCCN4CCN(C)CC4)c(OC)cc23)c(Cl)cc1Cl [Bosutinib] (20 µM) = 0.942
CCc1oc2ccccc2c1C(=O)c1cc(I)c(O)c(I)c1 [Benziodarone] (20 µM) = 0.468
CC(=O)N(CC(O)CO)c1c(I)c(C(=O)NCC(O)CO)c(I)c(C(=O)NCC(O)CO)c1I (centres undefined) [Iohexol] (20 µM) = 1.01

Here's the next entry for you.
The recorded fold change of Tryptamine concentration for CC(C)[C@H]1CC[C@H](C(=O)N[C@H](Cc2ccccc2)C(=O)O)CC1 [Nateglinide] (20 µM) is 1.02

###

System: Ruminococcus gnavus DSM 108212
Test: fold change of Tryptamine concentration vs plate DMSO controls (fold change (ratio)); higher = more amine produced, active = hit call of the paper (significant change in both replicates, either direction)
Details: incubation time: 27 h, anaerobic, 37 °C
Where a name gives a salt, the structure may show the parent alone.
endpoint.label: fold change of Tryptamine concentration
Answer as a number with no unit attached.

Previously resolved entries follow.
Nc1ccc(S(=O)(=O)Nc2cnc3ccccc3n2)cc1 [Sulfaquinoxaline sodium salt] (20 µM) = 0.985
O=C(O)c1ccccc1Nc1cccc(C(F)(F)F)c1 [Flufenamic acid] (20 µM) = 0.989

// below: fold change of Tryptamine concentration requested for another molecule
Measured fold change of Tryptamine concentration, O=C1OCCN1/N=C/c1ccc([N+](=O)[O-])o1 [Furazolidone] (20 µM) : 0.973
